test: Color (Hunter coordinates) of Ni complex, swabbed on Ni-coated receptor (CF) sheet; format: physicochemical; set-up: key: Hunter b: +b yellow, -b blue; settings: Ni(II) complex, swab concn. 1%, 45°/0° reflectance, illuminant C (Table 2)
EXPERIMENTAL READOUT: Hunter Coordinates b
Give bare numbers.

| MOLECULE SMILES | MEASURED VALUE |
| --- | --- |
| CC(C)(C)c1cc(C=NN=C(N)C(N)=NN=Cc2cc(C(C)(C)C)c(O)c(C(C)(C)C)c2)cc(C(C)(C)C)c1O | 17.6 |

I would be grateful if you could provide Hunter Coordinates b for each of the following entries.
1. CCOC(=O)CC(C)=NN=C(N)C(N)=NN=C(C)CC(=O)OCC
2. CCOc1cccc(C=NN=C(N)C(N)=NN=Cc2cccc(OCC)c2O)c1O
3. CCN(CC)c1ccc(C=NN=C(N)C(N)=NN=Cc2ccc(N(CC)CC)cc2O)c(O)c1

Resp:
1: 14.3; 2: 36.2; 3: 41.0

----------
assay: Color (Hunter coordinates) of Ni complex, swabbed on Ni-coated receptor (CF) sheet; type: physicochemical; set-up: key: Hunter a: +a red, -a green; settings: Ni(II) complex, swab concn. 1%, 45°/0° reflectance, illuminant C (Table 2)
EXPERIMENTAL READOUT: Hunter Coordinates a
Numbers only.

Take a look at these entries with their results.
| COMPOUND | Hunter Coordinates a |
| --- | --- |
| NC(=NN=Cc1cc(Br)ccc1O)C(N)=NN=Cc1cc(Br)ccc1O [Compound 3] | -7.5 |
| CC(C)(C)c1cc(C=NN=C(N)C(N)=NN=Cc2cc(C(C)(C)C)c(O)c(C(C)(C)C)c2)cc(C(C)(C)C)c1O [Compound 2] | -8.0 |
| C=CCc1cccc(C=NN=C(N)C(N)=NN=Cc2cccc(CC=C)c2O)c1O [Compound 16] | -6.6 |

Then this compound:
Req: Give the measured Hunter Coordinates a of CCOC(=O)CC(C)=NN=C(N)C(N)=NN=C(C)CC(=O)OCC [Compound 7] .
Resp: -5.8

----------
assay: Color (Hunter coordinates) of Ni complex, swabbed on Ni-coated receptor (CF) sheet; format: physicochemical; design: key: Hunter b: +b yellow, -b blue; details: Ni(II) complex, swab concn. 1%, 45°/0° reflectance, illuminant C (Table 2)
What Hunter Coordinates b was measured for each of the following?
One number for each entry.

Take a look at these entries with their results.
| MOLECULE SMILES | Hunter Coordinates b |
| --- | --- |
| NC(=NN=Cc1cccs1)C(N)=NN=Cc1cccs1 | 13.9 |
| CC(C)(C)c1cc(C=NN=C(N)C(N)=NN=Cc2cc(C(C)(C)C)cc(C(C)(C)C)c2O)c(O)c(C(C)(C)C)c1 | 39.3 |
| NC(=NN=C(c1ccccc1)c1ccc(O)cc1O)C(N)=NN=C(c1ccccc1)c1ccc(O)cc1O | 17.0 |

Then this molecule:
Req: Give the measured Hunter Coordinates b of `NC(=NN=Cc1c(O)ccc2ccccc12)C(N)=NN=Cc1c(O)ccc2ccccc12` .
Resp: 27.8

----------
assay: Color (Hunter coordinates) of Ni complex, swabbed on Ni-coated receptor (CF) sheet; type: physicochemical; conditions: C=(a^2 +b^2)^1/2; Ni(II) complex, swab concn. 1% (Table 2)
What Chroma was measured for each of the following?
Numbers only.

Take a look at these entries with their results.
| MOLECULE SMILES | Chroma |
| --- | --- |
| CCN(CC)c1ccc(C=NN=C(N)C(N)=NN=Cc2ccc(N(CC)CC)cc2O)c(O)c1 | 41.4 |
| NC(=NN=Cc1ccccn1)C(N)=NN=Cc1ccccn1 | 35.0 |
| CC(C)(C)c1cc(C=NN=C(N)C(N)=NN=Cc2cc(C(C)(C)C)cc(C(C)(C)C)c2O)c(O)c(C(C)(C)C)c1 | 39.3 |

I would be grateful if you could provide Chroma for each of the following entries.
1. NC(=NN=Cc1c(O)ccc2ccccc12)C(N)=NN=Cc1c(O)ccc2ccccc12
2. C=CCc1cccc(C=NN=C(N)C(N)=NN=Cc2cccc(CC=C)c2O)c1O
3. CCCCCCC=NN=C(N)C(N)=NN=CCCCCCC
4. NC(=NN=C(c1ccccc1)c1ccc(O)cc1O)C(N)=NN=C(c1ccccc1)c1ccc(O)cc1O
5. COc1cccc(C=NN=C(N)C(N)=NN=Cc2cccc(OC)c2O)c1O

Resp:
[28.5, 41.6, 11.6, 18.0, 36.2]

Req: Give the measured Chroma of `NC(=NN=Cc1ccccc1O)C(N)=NN=Cc1ccccc1O` .
Resp: 40.7

----------
test: Color (Hunter coordinates) of Ni complex, swabbed on Ni-coated receptor (CF) sheet; format: physicochemical; parameters: key: Hunter a: +a red, -a green; conditions: Ni(II) complex, swab concn. 1%, 45°/0° reflectance, illuminant C (Table 2)
EXPERIMENTAL READOUT: Hunter Coordinates a
Answers are plain numbers.

Take a look at these entries with their results.
| MOLECULE SMILES | EXPERIMENTAL READOUT | MEASURED VALUE |
| --- | --- | --- |
| COc1cccc(C=NN=C(N)C(N)=NN=Cc2cccc(OC)c2O)c1O | Hunter Coordinates a | -11.1 |
| CCN(CC)c1ccc(C=NN=C(N)C(N)=NN=Cc2ccc(N(CC)CC)cc2O)c(O)c1 | Hunter Coordinates a | -5.2 |
| NC(=NN=Cc1ccccc1O)C(N)=NN=Cc1ccccc1O | Hunter Coordinates a | -9.7 |

Then this compound:
Req: Give the measured Hunter Coordinates a of `NC(=NN=Cc1ccccn1)C(N)=NN=Cc1ccccn1` .
Resp: -11.0

----------
What Hunter Coordinates L was measured for each of the following?
experiment: Color (Hunter coordinates) of Ni complex, swabbed on Ni-coated receptor (CF) sheet; type: physicochemical; conditions: Ni(II) complex, swab concn. 1%, 45°/0° reflectance, illuminant C (Table 2)
Give bare numbers.

Take a look at these entries with their results.
| MOLECULE SMILES | EXPERIMENTAL READOUT | MEASURED VALUE |
| --- | --- | --- |
| CC(C)(C)c1cc(C=NN=C(N)C(N)=NN=Cc2cc(C(C)(C)C)c(O)c(C(C)(C)C)c2)cc(C(C)(C)C)c1O | Hunter Coordinates L | 90.0 |
| NC(=NN=C(c1ccccc1)c1ccc(O)cc1O)C(N)=NN=C(c1ccccc1)c1ccc(O)cc1O | Hunter Coordinates L | 88.0 |
| CC(C)(C)c1cc(C=NN=C(N)C(N)=NN=Cc2cc(C(C)(C)C)cc(C(C)(C)C)c2O)c(O)c(C(C)(C)C)c1 | Hunter Coordinates L | 79.8 |
| CCOc1cccc(C=NN=C(N)C(N)=NN=Cc2cccc(OCC)c2O)c1O | Hunter Coordinates L | 88.4 |
| NC(=NN=Cc1ccccn1)C(N)=NN=Cc1ccccn1 | Hunter Coordinates L | 86.5 |

I would be grateful if you could provide Hunter Coordinates L for each of the following entries.
1. CC(=NN=C(N)C(N)=NN=C(C)c1ccccc1O)c1ccccc1O
2. NC(=NN=Cc1cc(Br)ccc1O)C(N)=NN=Cc1cc(Br)ccc1O
3. NC(=NN=Cc1ccccc1O)C(N)=NN=Cc1ccccc1O

Resp:
48.3
81.9
84.5

----------
test: Solubility in capsule fill solvents; assay type: physicochemical; details: 4320 min
What Dye Solubility was measured for each of the following?

Take a look at these entries with their results.
| MOLECULE SMILES | Dye Solubility |
| --- | --- |
| NC(=NN=Cc1cc(Br)ccc1O)C(N)=NN=Cc1cc(Br)ccc1O | < 2.0% |
| NC(=NN=Cc1ccccc1O)C(N)=NN=Cc1ccccc1O | < 2.0% |
| CC(C)(C)c1cc(C=NN=C(N)C(N)=NN=Cc2cc(C(C)(C)C)c(O)c(C(C)(C)C)c2)cc(C(C)(C)C)c1O | > 2.0% |

I would be grateful if you could provide Dye Solubility for each of the following entries.
1. CCCCCCC=NN=C(N)C(N)=NN=CCCCCCC
2. NC(=NN=Cc1ccccn1)C(N)=NN=Cc1ccccn1
3. C=CCc1cccc(C=NN=C(N)C(N)=NN=Cc2cccc(CC=C)c2O)c1O
4. CCOC(=O)CC(C)=NN=C(N)C(N)=NN=C(C)CC(=O)OCC
5. NC(=NN=Cc1cccs1)C(N)=NN=Cc1cccs1

Resp:
1. > 2.0%
2. < 2.0%
3. > 3.0%
4. > 2.0%
5. < 2.0%

I would be grateful if you could provide Dye Solubility for each of the following entries.
1. NC(=NN=Cc1c(O)ccc2ccccc12)C(N)=NN=Cc1c(O)ccc2ccccc12
2. COc1cccc(C=NN=C(N)C(N)=NN=Cc2cccc(OC)c2O)c1O

Resp:
1. < 2.0%
2. < 2.0%

I would be grateful if you could provide Dye Solubility for each of the following entries.
1. CCOc1cccc(C=NN=C(N)C(N)=NN=Cc2cccc(OCC)c2O)c1O
2. NC(=NN=Cc1ccco1)C(N)=NN=Cc1ccco1
3. CCN(CC)c1ccc(C=NN=C(N)C(N)=NN=Cc2ccc(N(CC)CC)cc2O)c(O)c1
4. CC(=NN=C(N)C(N)=NN=C(C)c1ccccc1O)c1ccccc1O
5. NC(=NN=C(c1ccccc1)c1ccc(O)cc1O)C(N)=NN=C(c1ccccc1)c1ccc(O)cc1O
6. CC(C)(C)c1cc(C=NN=C(N)C(N)=NN=Cc2cc(C(C)(C)C)cc(C(C)(C)C)c2O)c(O)c(C(C)(C)C)c1

Resp:
1. < 2.0%
2. < 2.0%
3. < 2.0%
4. < 2.0%
5. < 2.0%
6. > 9.0%
